Origin of values: patent US9980943B2

Can you tell me Burkin Assay in Myoblasts, value relative to DMSO for the items I'm about to list?
- Tested on: α7 integrin (LacZ reporter in α7βgal+/− myoblasts)
- Protocol text: Myoblast α7+/LacZ integrin FDG assay (Burkin assay in myoblasts, 96-well)
- Assay type: cell-based, mouse
- Setup conditions: 40 uM; α7+/LacZ myoblasts, 96-well
Format: numeric value only, no unit, no commentary.

// query Give Burkin Assay in Myoblasts, value relative to DMSO (α7 integrin (LacZ reporter in α7βgal+/− myoblasts)) of the following molecule: CC(C)(CC(=O)O)CC(=O)N1CCCN(c2nccc(C(F)(F)F)n2)CC1 [MLS001181671-01]
// result 0.891

// query What about O=C(Nc1cc(Br)ccc1O)C1CC(c2ccccc2Cl)=NO1 (stereo not shown) [MLS001202627-01] ?
// result 0.2179

// query And what about the molecule CNC(=S)N1CCC(NC(=O)C(Cc2ccc(F)cc2)NC(C)=O)CC1 (stereo not shown) [MLS000710130-01] ?
// result 0.8689

// query Follow-up entry: CCNC(=O)COC(=O)c1cc(-c2ccco2)nc2ccccc12 [MLS000772580-01]
// result 0.7251

// query Please do the same for S=c1[nH]nc(Cn2cnc3ccccc32)n1-c1ccccc1 [MLS000707281-01] as well.
// result 0.7969

// query Ok, now c1ccc(-c2cnc(-c3ccccc3)nc2)cc1 [MLS000532078-01]
// result 1.077

// query How about this molecule: COC(=O)c1ccc(C2C(C(=O)c3cc4ccccc4o3)=C(O)C(=O)N2CCN2CCOCC2)cc1 (stereo not shown) [MLS001146463-01]
// result 0.8061

----------
- Tested on: α7 integrin (LacZ reporter in α7+/LacZ myotubes)
- Protocol text: Myotube α7 integrin FDG assay (Burkin assay in myotubes, 96-well)
- Type: cell-based, mouse
- Setup conditions: 0.5 uM, myotubes
Please go through the items and note down their Burkin Assay in Myotubes (signal relative to DMSO).
API doc: respond with a numeric literal and nothing else, no unit.

// query Under α7 integrin (LacZ reporter in α7+/LacZ myotubes): Burkin Assay in Myotubes (signal relative to DMSO) value of O=Cc1cn(Cc2ccc(F)cc2Cl)c2ccccc12 ?
// result 0.9171

// query # iterate: CC(C)(CC(=O)O)CC(=O)N1CCCN(c2nccc(C(F)(F)F)n2)CC1
// result 1.071

// query Then this molecule: Cc1ccc(-c2nc(C)sc2CC(=O)OCC(=O)Nc2c(F)cccc2F)cc1
// result 0.9225

// query Again, but for COc1cc(NC(=O)CN(C)S(=O)(=O)c2ccc3c(c2)CC(C)N3C(C)=O)cc(OC)c1OC (stereo not drawn)
// result 1.192

// query Request: Cc1cc(C)cc(-n2nnc(C(=O)NCc3ccccc3Cl)c2N)c1
// result 1.14

// query O=C(CSc1nnc(C2CC2)n1C1CC1)c1cccs1 , same question.
// result 0.8459

// query Next: COc1cc(/C=C/c2nc(-c3ccccc3O)n[nH]2)cc(OC)c1OC
// result 0.8698

// query Here is the next molecule: O=S(=O)(NCC(c1ccco1)N1CCOCC1)c1ccc(Cl)cc1 (stereo not drawn)
// result 0.9961

// query And for O=C(/C(=C(/[O-])c1ccccc1)[n+]1ccccc1)c1ccc([N+](=O)[O-])cc1 ?
// result 0.8984
